Data provenance: patent US20210380703A1

# Study target: T1, mouse ACVR2A (mouse, UniProt P27038 20-135, limits assumed); further: test concentration or dose not given here
# T1 construct: coated antigen of the initial ELISA
# T1 sequence (P27038 20-135 limits assumed): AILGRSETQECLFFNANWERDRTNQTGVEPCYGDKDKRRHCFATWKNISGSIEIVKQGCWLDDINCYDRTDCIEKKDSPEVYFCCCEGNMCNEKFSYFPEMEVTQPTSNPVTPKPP
# Assay remarks: ELISA
optical density values, listed per item
The reply should contain only the number, in OD.

Bench note: what optical density did 369_E06 (antibody, V domains shown, Group III) VH: EVQLLESGGGLVQPGGSLRLSCAASGFTFSSYGMNWVRQAPGKGLEWVSGINYNGGYTSYADSVKGRFTISRDNSKNTLYLQMNSLRAEDTAVYYCARGANWHDTALDYWGQGTLVTVSS VL: DIQMTQSPSSLSASVGDRVTITCRASQSIISYLNWYQQKPGKAPKLVIYAATSRHSGVPSRFSGSGSGTDFTLTISSLQPEDFATYYCQQSYDSPLTFGGGTKVEIK show? 3.11

Tell me the measured optical density of 373_E10 (antibody, V domains shown, Group III) VH: EVQLLESGGGLVQPGGSLRLSCAASGFTFSDYSMNWVRQAPGKGLEWVSGINYNGGYTSYADSVKGRFTISRDNSKNTLYLQMNSLRAEDTAVYYCARGANWHDTALDYWGQGTLVTVSS VL: DIQMTQSPSSLSASVGDRVTITCRASQSILTYVNWYQQKPGKAPKLVIYAATSRHSGVPSRFSGSGSGTDFTLTISSLQPEDFATYYCQQSYETPLTFGGGTKVEIK , please. 3.64

Given the entry 371_C12 (antibody, V domains shown, Group III) VH: EVQLLESGGGLVQPGGSLRLSCAASGFTFSSYSMNWVRQAPGKGLEWVAGINYNSGYKSYADSVKGRFTISRDNSKNTLYLQMNSLRAEDTAVYYCARGANWHDTHLDYWGQGTLVTVSS VL: DIQMTQSPSSLSASVGDRVTITCRASQSIVSYVNWYQQKPGKAPKLLIYAATSRASGVPSRFSGSGSGTDFTLTISSLQPEDFATYYCQQSYDTPLTFGGGTKVEIK , report its measured optical density. 3.2

What does the record list as optical density for 374_A09 (antibody, V domains shown, Group III) VH: EVQLLESGGGLVQPGGSLRLSCAASGFTFSSYSMNWVRQAPGKGLEWVSSINYNGGYKGYADSVKGRFTISRDNSKNTLYLQMNSLRAEDTAVYYCARGANWHDTHLDYWGQGTLVTVSS VL: DIQMTQSPSSLSASVGDRVTITCRASQSILTYVNWYQQKPGKAPKLLIYAATSLASGVPSRFSGSGSGTDFTLTISSLQPEDFATYYCQQSYDSPLTFGGGTKVEIK ? 3.64

What value of optical density has been recorded for this entry: 367_D08 (antibody, V domains shown, Group III) VH: EVQLLESGGGLVQPGGSLRLSCAASGFTFSDYSMNWVRQAPGKGLEWVAGINYNGGYTSYADSVKGRFTISRDNSKNTLYLQMNSLRAEDTAVYYCARGANWHDTHLDYWGQGTLVTVSS VL: DIQMTQSPSSLSASVGDRVTITCRASQSILSYLNWYQQKPGKAPKLVIYAATSRHSGVPSRFSGSGSGTDFTLTISSLQPEDFATYYCQQSDDLPLTFGGGTKVEIK 2.37
